experimental-protocol: Antiplatelet activity in human platelets assessed as reduction in thrombin-induced platelet aggregation by turbidimetric method
Assay type: functional, cell-based
quantity-measured: IC50 (µM)
Provide the reading as a plain figure in µM.

Ask | I am curious: what IC50 value has been reported for `O=C(/C=C/c1cc(=O)[nH]nc1-c1ccccc1)c1ccc(Cl)cc1Cl` ?
Reply | 3.44
